Data credit: the DeepSol protein solubility set

# protocol-description: soluble on expression in E. coli; label from the status in PepcDB or PDB records
endpoint-label: soluble on expression in E. coli

INSERT INTO results (input_sequence, result) VALUES
  ('MAKFNVENEHVEVEIEKLYKFSPELVYEAWTKKDLLKQWFMTSARTNKEIEADVKEGGKYRIVDQQRNGKVNVIEGIYESLVMDEYVKMTIGMPGLSETQDVIEVEFFERETGGTQMLFYYRSLVEKERRFTNLEYKQKKKEYHDAMVHGFELMFDKMYHVIETSTQQ', 'soluble'),
  ('MACAAARSPADQDRFICIYPAYLNNKKTIAEGRRIPISKAVENPTATEIQDVCSAVGLNVFLEKNKMYSREWNRDVQYRGRVRVQLKQEDGSLCLVQFPSRKSVMLYAAEMIPKLKTRTQLEHHHHHH', 'soluble');
